These data points were gathered from ChEMBL document CHEMBL1135916.

System: Enterovirus
Assay: Inhibition Concentration against enterovirus 68
Format: functional, organism-based
This listing pairs compounds with measured pIC50.
Reminder that pIC50 is minus the log10 of a molar concentration.

GET /values?item= O=C1N(CCCCCCOc2ccc(C(F)(F)F)cc2)CCN1c1ccncc1 &system= Enterovirus returns pIC50: 5.33

GET /values?item= O=C1N(CCCCCCOc2ccc(Br)cc2)CCN1c1ccncc1 &system= Enterovirus returns pIC50: 5.67

---

Test system: Human alphaherpesvirus 2
Experiment: Inhibition concentration against herpes simplex virus
Format: functional, organism-based
This listing pairs molecules with measured IC50.

{"columns": ["Smiles string", "Assay target", "IC50"],
 "data": [
  ["O=C1N(CCCCCCOc2ccc(Br)cc2)CCN1c1ccncc1", "Human alphaherpesvirus 2", "> 25 µM"]
]}

Read the next record carefully.
Noted for O=C1N(CCCCCCOc2ccc(C(F)(F)F)cc2)CCN1c1ccncc1 : its IC50 reads > 25 µM

---

Test: Cytotoxicity against human normal skin fibroblast (W138) cells
Format: cell-based
Conditions: W138 normal skin fibroblast cells
Readout name: CC50 (µM)
Kindly answer with a numeric value in µM, unit omitted.

{"columns": ["Smiles string", "CC50 [µM]"],
 "data": [
  ["O=C1N(CCCCCOc2ccc(Br)cc2)CCN1c1ccncc1", 65],
  ["O=C1N(CCCCCCOc2ccc(Br)cc2)CCN1c1ccncc1", 50],
  ["O=C1N(CCCCCCOc2ccc(C(F)(F)F)cc2)CCN1c1ccncc1", 36],
  ["O=C1N(CCCCCCOc2ccc(-c3cccs3)cc2)CCN1c1ccncc1", 60]
]}

Read the next record carefully.
Noted for O=C1N(CCCCCOc2ccc(-c3ccc(Cl)cc3)cc2)CCN1c1ccncc1 : its CC50 reads 32

---

Test system: Coxsackievirus
Test: Inhibition concentration against coxsackie virus B2
Format: functional, organism-based
Readout name: IC50

{"columns": ["Smiles string", "IC50"],
 "data": [
  ["O=C1N(CCCCCCOc2ccc(C(F)(F)F)cc2)CCN1c1ccncc1", "> 25 µM"]
]}

Read the next record carefully.
Noted for O=C1N(CCCCCCOc2ccc(Br)cc2)CCN1c1ccncc1 : its IC50 reads > 25 µM

---

Experiment: Cytotoxicity against human normal skin fibroblast (D551) cells
Assay type: cell-based
Conditions: D551 normal skin fibroblast cells
This listing pairs molecules with measured CC50.
Kindly answer with a numeric value in µM, unit omitted.

Worked examples follow.
{"columns": ["Smiles string", "Readout name", "Reported"],
 "data": [
  ["O=C1N(CCCCCCOc2ccc(Br)cc2)CCN1c1ccncc1", "CC50", 46],
  ["O=C1N(CCCCCCOc2ccc(C(F)(F)F)cc2)CCN1c1ccncc1", "CC50", 55],
  ["O=C1N(CCCCCOc2ccc(Br)cc2)CCN1c1ccncc1", "CC50", 50]
]}

Read the next record carefully.
Noted for O=C1N(CCCCCCOc2ccc(-c3cccs3)cc2)CCN1c1ccncc1 : its CC50 reads 46

---

Test: Cytotoxicity against human normal skin fibroblast (W138) cells
Format: cell-based
Settings: W138 normal skin fibroblast cells
This listing pairs compounds with measured CC50.

Worked examples follow.
{"columns": ["Smiles string", "CC50"],
 "data": [
  ["COc1ccc(-c2ccc(OCCCCCN3CCN(c4ccncc4)C3=O)cc2)cc1", "> 100 µM"],
  ["O=C1N(CCCCCOc2ccc(-c3ccc(Br)cc3)cc2)CCN1c1ccncc1", "> 100 µM"]
]}

Read the next record carefully.
Noted for O=C1N(CCCCCOc2ccc(-c3ccc([N+](=O)[O-])cc3)cc2)CCN1c1ccncc1 : its CC50 reads > 100 µM
